target: recombinant human LTA hydrolase (rhLTAH) (Homo sapiens, UniProt P09960); assay: Recombinant Human LTA Hydrolase Assay for LTA Hydrolase Inhibitor Activity; conditions: 250 ng rhLTA4H, 10 min preincubation, room temperature, pH 7.4, 10 min reaction, immunoassay; read-out: Recombinant Human LTA4 Hydrolase Assay IC50 LTA4
pIC50: −log10 of the molar value. Counter-ions that a name gives are not always drawn.
reported-property: pIC50

Examples from the recorded data:
compound: N=C(COc1ccc(Cc2ccccc2)cc1)N1CCCCC1 [Example 4, monohydrochloride]
pIC50: 8.37

compound: N=C(CCCOc1ccc(Cc2ccccc2)cc1)N1CCCCC1 [Example 16, monohydrochloride]
pIC50: 7.28

compound: CCOC(=O)C1CCN(C(=N)COc2ccc(Cc3ccccc3)cc2)CC1 [Example 5, monohydrochloride]
pIC50: 8.89

(I) c1ccc(Cc2ccc(OCC3=NCCN3)cc2)cc1
(II) COC(=O)CCN1CCN=C1COc1ccc(Cc2ccccc2)cc1
input: Which shows the larger pIC50 value: I or II ? Respond with the label that goes with your answer.
output: I

(I) c1ccc(Cc2ccc(OCCCC3=NCCN3)cc2)cc1
(II) N=C(COc1ccc(Cc2ccccc2)cc1)N1CCCC1 [Example 3, monohydrochloride]
input: Which shows the larger pIC50 value: I or II ? Respond with the label that goes with your answer.
output: II

(1) N=C(COc1ccc(Cc2ccccc2)cc1)NC1C2CC3CC(C2)CC1C3 (stereo not shown) [Example 11, monohydrate]
(2) c1ccc(Cc2ccc(OCC3=NC4CCCCC4N3)cc2)cc1 (stereo not shown)
input: Which shows the larger pIC50 value: 1 or 2 ? Respond with the label that goes with your answer.
output: 2

====

Target: recombinant human LTA hydrolase (rhLTAH) (Homo sapiens)
Sequence (P09960 1-611): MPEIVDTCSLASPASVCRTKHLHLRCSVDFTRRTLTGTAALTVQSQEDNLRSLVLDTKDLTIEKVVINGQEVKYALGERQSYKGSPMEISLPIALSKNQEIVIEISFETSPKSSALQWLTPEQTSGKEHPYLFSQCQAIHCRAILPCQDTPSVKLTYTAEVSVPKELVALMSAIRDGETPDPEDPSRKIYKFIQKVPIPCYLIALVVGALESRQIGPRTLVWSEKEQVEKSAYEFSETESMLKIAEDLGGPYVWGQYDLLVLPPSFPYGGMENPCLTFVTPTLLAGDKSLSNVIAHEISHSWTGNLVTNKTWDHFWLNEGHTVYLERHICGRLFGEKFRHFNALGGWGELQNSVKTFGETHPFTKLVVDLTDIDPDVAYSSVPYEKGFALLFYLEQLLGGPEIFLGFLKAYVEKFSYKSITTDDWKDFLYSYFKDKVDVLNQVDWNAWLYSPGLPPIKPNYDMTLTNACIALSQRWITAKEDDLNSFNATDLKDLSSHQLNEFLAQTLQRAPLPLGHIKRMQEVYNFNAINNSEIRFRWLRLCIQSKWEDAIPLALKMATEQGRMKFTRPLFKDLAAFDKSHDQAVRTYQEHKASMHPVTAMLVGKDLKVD
Assay: Recombinant Human LTA Hydrolase Assay for LTA Hydrolase Inhibitor Activity
Settings: 250 ng rhLTA4H, 10 min preincubation, room temperature, pH 7.4, 10 min reaction, immunoassay; read-out: Recombinant Human LTA4 Hydrolase Assay IC50 LTA4
pIC50: −log10 of the molar value. Structures can show the parent of a compound that is named as a salt.
reported-property: pIC50

compound: CCOC(=O)CCNC(=N)COc1ccc(Cc2ccccc2)cc1 [Example 6, monohydrochloride]
reported-property: pIC50
test-value: 7.64
--
compound: N=C(COc1ccc(Cc2ccccc2)cc1)N1CCC(C(N)=O)CC1
reported-property: pIC50
test-value: 7.77
--
compound: N=C(N)COc1ccc(Cc2ccccc2)cc1
reported-property: pIC50
test-value: 7.05
